tested on: UACC-62 melanoma; experiment: NCI tumour cell line growth inhibition, 48 h
endpoint: GI50

{"compound": "O=C(c1ccccc1)c1ccc(Oc2ccc([N+](=O)[O-])cc2[N+](=O)[O-])cc1", "assay_system": "UACC-62 melanoma", "GI50": "4100 nM"}
{"compound": "CC(C)(C)C(=O)OCOP(=O)(OCOC(=O)C(C)(C)C)C1CC(O)N(O)C1=O (stereo not given)", "assay_system": "UACC-62 melanoma", "GI50": "2370 nM"}
{"compound": "CCN1C(=O)N(CC)C2Nn3c(s/c(=C\\c4ccccc4Br)c3=O)=NC21 (stereo not given)", "assay_system": "UACC-62 melanoma", "GI50": "2180 nM"}
{"compound": "CCOC(=O)c1c(C)n2c(=O)cc(C)c3c(O)c(O)cc1c32", "assay_system": "UACC-62 melanoma", "GI50": "8900 nM"}

Turning now to a further compound:
Provide measured GI50 value, entry: Cc1ccc(C(SCC(N)C(=O)O)(c2ccc(C)cc2)c2ccc(C)cc2)cc1 (stereo not given)
1030 nM

###

tested on: U251 CNS; assay: NCI tumour cell line growth inhibition, 48 h
TGI values, listed per item

Solved cases (3 shown):
{"compound": "CS(=O)(=O)Nc1ccc(-c2cc(-c3ccccc3)cc(C(N)=O)c2N)cc1", "TGI": "> 25 µM"}
{"compound": "NCCN1C(=O)CN=C(c2ccc(Cl)cc2)c2cc(Cl)ccc21", "TGI": "31.5 µM"}
{"compound": "C=C[C@@H]1C[C@]2(C(=O)OC)Cc3nc4ccccc4nc3CC(C(=O)OC)=C2O1", "TGI": "> 100 µM"}

Look up and report TGI, with U251 CNS as system, for NC(N)=N/N=C/c1c(-c2cc(Cl)sc2Cl)nc2sccn12
1.56 µM

Look up and report TGI, with U251 CNS as system, for N#Cc1c2c(c(N=P(c3ccccc3)(c3ccccc3)c3ccccc3)n3c1nc1ccccc13)CCCC2
77.9 µM

Look up and report TGI, with U251 CNS as system, for C=CCSC1=N/C(=C\c2cccs2)C(=O)N1CC=C
> 100 µM

Look up and report TGI, with U251 CNS as system, for Cn1cc(C2=C(c3cn(C)c4c([N+](=O)[O-])cccc34)C(=O)NC2=O)c2ccccc21
> 25 µM

###

TGI values, listed per item
tested on: HCT-15 colon; assay: NCI tumour cell line growth inhibition, 48 h

{"compound": "CCN(CC)c1ccc2cc(C(=O)Nc3ccccc3)c(=N)oc2c1", "TGI": "> 100 µM"}
{"compound": "O=C1C(=O)c2c(nc3ccc(Br)cn23)-c2ccccc21", "TGI": "2.66 µM"}
{"compound": "CC(C)(C)Nc1noc(=O)n1C(C)(C)C", "TGI": "> 100 µM"}
{"compound": "CC(=O)O[C@H]1/C(=C/c2ccncc2)C[C@H]2[C@@H]3CC=C4C[C@@H](N5CCCC5)CC[C@]4(C)[C@H]3CC[C@]12C", "TGI": "24.7 µM"}
{"compound": "c1ccc([P+](Cc2ccccc2C[P+](c2ccccc2)(c2ccccc2)c2ccccc2)(c2ccccc2)c2ccccc2)cc1", "TGI": "> 100 µM"}

Provide measured TGI value, entry: O=C(c1ccccc1)[C@H]1Nc2ccc(Cl)cc2C2c3ccccc3CC21 (some centres undefined)
> 100 µM

Provide measured TGI value, entry: COc1ccc(C(=O)c2cc(OC)c(OC)c(OC)c2)cc1/C=C/C(=O)c1ccc(OC)c(OC)c1
> 100 µM

Provide measured TGI value, entry: Clc1cc(Cl)cc(C2ON=C(c3ccccc3)N2C23CC4CC(CC(C4)C2)C3)c1 (centres undefined)
> 10 µM

Provide measured TGI value, entry: NC1CCC(Nc2nc(NCc3ccc(-c4cccs4)nc3)c3ncn(C4CCCC4)c3n2)CC1 (centres undefined)
5.36 µM

Values were extracted from PubChem BioAssay (NCI).
